Where do these numbers come from? They come from ChEMBL document CHEMBL4513216.

Consider the following molecules; for each one, report its cytotoxicity at 10 µM.
testSummary: Toxicity liver stage against HepG2, at 10uM
Format: cell-based
Parameters: test concentration 10 uM, cell line HepG2-A16-CD81EGFP
protocolConditions: human, HepG2-A16-CD81EGFP cells; read-out: INHIBITION
One number for each entry, in %.

| molecule | cytotoxicity at 10 µM, % |
| --- | --- |
| CC1CCN(S(=O)(=O)N2CCn3cccc3C2C)CC1 (centres undefined) | -0.224 |
| CC(=O)NC1CCN(c2nc(N)nc3c2CCCC3)C1 (centres undefined) | 0.452 |
| CCN1CCn2c(C)cnc2C12CCN(C(=O)NCC(C)C)CC2 | -1.07 |
| Cc1cnn(CC2CCCN2C(=O)c2csc(C3CC3)n2)c1 (centres undefined) | -17.8 |

# batch size: 4; output cytotoxicity at 10 µM per entry
1. C[C@@H]1CN(Cc2cccc(F)c2)C[C@]12CCN(Cc1cccnc1)C2=O
2. O=C(NCc1cc2ccccc2[nH]1)C1CCCN(C(=O)N2CCCC2)C1 (centres undefined)
3. Cn1cc(CN2CCc3onc(C(=O)Nc4cccnc4)c3C2)cn1
4. Cc1cccc(OCCSCCn2nc3ccccn3c2=O)c1

[A]
1. -2.6
2. 6.81
3. 4.22
4. 6.47
